Ref: patent US20260242735A1

Target: human CD33 N20T (human, UniProt P20138 18-364)
Sequence (P20138 18-364 N20T limits assumed): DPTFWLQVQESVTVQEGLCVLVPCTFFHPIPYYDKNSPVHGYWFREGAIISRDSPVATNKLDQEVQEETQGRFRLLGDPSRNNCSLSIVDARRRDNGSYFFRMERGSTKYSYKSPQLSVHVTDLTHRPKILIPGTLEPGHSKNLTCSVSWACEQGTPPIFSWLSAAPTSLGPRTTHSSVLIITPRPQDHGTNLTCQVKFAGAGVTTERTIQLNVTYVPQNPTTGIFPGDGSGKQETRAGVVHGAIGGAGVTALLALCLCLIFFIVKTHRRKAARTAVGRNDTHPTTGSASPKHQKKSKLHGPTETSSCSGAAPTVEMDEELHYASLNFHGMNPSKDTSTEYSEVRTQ
Test: flow cytometry, mutant on cells, IgG
endpoint_label: Mean % WT Binding (% WT binding)
Field: numeric (% WT binding). Do not append units.

Lookup: Recorded Mean % WT Binding for Refmab #2 (antibody, human IgG1, V domains shown, Tested in IgG format; human IgG1 Fc silent (PG-LALA)) VH: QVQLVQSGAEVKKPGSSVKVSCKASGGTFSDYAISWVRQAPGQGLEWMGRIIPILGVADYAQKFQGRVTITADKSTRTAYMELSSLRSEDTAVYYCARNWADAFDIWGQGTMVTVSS VL: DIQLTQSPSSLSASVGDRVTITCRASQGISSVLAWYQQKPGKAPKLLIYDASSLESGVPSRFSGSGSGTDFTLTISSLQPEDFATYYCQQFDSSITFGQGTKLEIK , please?
Found: 116
